A compilation of IC50 values for Amyloid-beta precursor protein (Homo sapiens) from the published literature.
Lab note - cut at 9 µM for IC50: satisfied if strictly below, not satisfied if not.

Worked examples follow.
COc1ccc(O)c(/C=N/NC(=O)c2cc(C)ccc2O)c1; not satisfied
Cc1ccc(/C=N/NC(=O)c2ccc3c(c2)OCO3)c(O)c1; not satisfied
OC1(c2ccccc2-c2cc(N3CC(CN4CCOCC4)C3)c3nonc3c2)COC1; not satisfied
NC(=O)c1cccc(-c2cc(N3CC(CN4CCCC4)C3)c3nonc3c2)c1; satisfied

Asked: Dear reviewer, please state whether O=C(N/N=C/c1c(O)ccc2ccccc12)c1cc(C2CC2)n[nH]1 has IC50 strictly beneath 9 µM.
Given back: not satisfied

Asked: Dear reviewer, please state whether OC(c1ccc(-c2cc(N3CC(CN4CCOCC4)C3)c3nonc3c2)s1)C(F)(F)F (stereo not drawn) has IC50 strictly beneath 9 µM.
Given back: satisfied

Asked: Dear reviewer, please state whether O=c1c2c(Cl)cc(Cl)c(O)c2ncn1CCN1CCCC1 has IC50 strictly beneath 9 µM.
Given back: satisfied

Asked: Dear reviewer, please state whether OC(c1ccc(-c2cc(N3CCC(N4CCCC4)CC3)c3nonc3c2)s1)C(F)(F)F (stereo not drawn) has IC50 strictly beneath 9 µM.
Given back: not satisfied
